Tested system: HMG-CoA synthase (Rattus norvegicus, UniProt P17425)
Construct: The HMG-CoA synthase was eluted from the column with 0.1 M phosphate buffer (pH 7.2); from tissue; host or cells: liver of male Charles River CD rats
Sequence (P17425 1-520): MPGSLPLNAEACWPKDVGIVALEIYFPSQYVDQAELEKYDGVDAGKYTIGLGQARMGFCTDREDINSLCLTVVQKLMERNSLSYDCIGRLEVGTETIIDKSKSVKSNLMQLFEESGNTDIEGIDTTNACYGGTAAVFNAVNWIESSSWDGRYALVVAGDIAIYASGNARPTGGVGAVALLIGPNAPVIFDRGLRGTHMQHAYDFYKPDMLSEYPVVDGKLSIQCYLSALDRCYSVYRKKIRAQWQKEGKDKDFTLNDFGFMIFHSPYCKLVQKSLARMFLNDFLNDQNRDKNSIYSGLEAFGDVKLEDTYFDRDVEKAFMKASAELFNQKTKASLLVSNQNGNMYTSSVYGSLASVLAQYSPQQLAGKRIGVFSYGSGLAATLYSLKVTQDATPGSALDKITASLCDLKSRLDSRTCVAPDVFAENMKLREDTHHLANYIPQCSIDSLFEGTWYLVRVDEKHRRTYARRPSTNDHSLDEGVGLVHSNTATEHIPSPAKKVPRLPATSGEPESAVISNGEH
Method description: HMG-CoA Synthase Inhibition Assay
Type: biochemical
Conditions: in vitro; HMG-CoA synthase purified from rat liver; 5 min preincubation with test compound at 30°, then 10 min with acetoacetyl-CoA and [14C]-acetyl-CoA
Result type: IC50 (µM)

{"Compound": "COC(=O)C=C(C)C(O)C(C)(O)CC(C)CCCCC1OC(=O)C1CO (stereo not shown)", "Tested system": "HMG-CoA synthase (Rattus norvegicus, UniProt P17425)", "Recorded value": 1.1}
{"Compound": "CC(CC(C)CCCCC1OC(=O)C1CO)=NNc1ccc(Br)cc1 (stereo not shown)", "Tested system": "HMG-CoA synthase (Rattus norvegicus, UniProt P17425)", "Recorded value": 0.8}

P = CC(=CC(=O)O)C1OC1(C)CC(C)CCCCC1OC(=O)C1CO (stereo not shown)
Q = C=CCCCCCCCC[C@@H]1OC(=O)[C@H]1C (relative stereo)
Form: Entry with minimum IC50 (choose one): P / Q Please identify the chosen entry by its label.
P
(P: 0.1 µM, Q: 1.6 µM)
